Top cytotoxicity (%), CDC reference
System name: T1, human CD276 protein (human, UniProt Q5ZPR3 29-534)
T1 sequence (looked up): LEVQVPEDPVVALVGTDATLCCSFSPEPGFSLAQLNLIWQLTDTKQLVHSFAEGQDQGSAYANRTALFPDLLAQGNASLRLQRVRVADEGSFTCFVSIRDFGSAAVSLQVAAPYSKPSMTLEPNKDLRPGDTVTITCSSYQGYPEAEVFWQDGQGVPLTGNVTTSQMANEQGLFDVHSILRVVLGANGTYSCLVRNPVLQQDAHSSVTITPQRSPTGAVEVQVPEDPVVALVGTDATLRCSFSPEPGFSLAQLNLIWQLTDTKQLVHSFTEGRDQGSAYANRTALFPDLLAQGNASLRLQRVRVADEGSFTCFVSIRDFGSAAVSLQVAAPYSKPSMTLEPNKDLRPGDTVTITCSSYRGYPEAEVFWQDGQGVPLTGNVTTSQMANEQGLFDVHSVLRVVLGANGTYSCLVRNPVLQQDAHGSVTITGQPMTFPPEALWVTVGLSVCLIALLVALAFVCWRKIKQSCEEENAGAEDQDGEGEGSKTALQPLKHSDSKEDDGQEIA
Test method notes: cell-based or functional assay
A number alone suffices; assume %.

1) 25-C8-D7-C5 (human IgG1 chimeric antibody) (antibody, V domains shown, human IgG1 chimeric antibody of the mouse clone) VH: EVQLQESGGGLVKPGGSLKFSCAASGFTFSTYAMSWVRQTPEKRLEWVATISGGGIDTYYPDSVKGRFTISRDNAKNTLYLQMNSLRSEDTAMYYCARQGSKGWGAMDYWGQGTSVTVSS VL: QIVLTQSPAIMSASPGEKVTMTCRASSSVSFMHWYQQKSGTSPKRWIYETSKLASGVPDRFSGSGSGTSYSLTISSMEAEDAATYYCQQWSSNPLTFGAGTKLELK : 91.4
2) 18-F9-D8-G7 (human IgG1 chimeric antibody) (antibody, V domains shown, human IgG1 chimeric antibody of the mouse clone) VH: EVQLQQSGPELVRPGVSVKISCKGSGYTFTDYAMHWVKQSHAQSLEWIGIINTYSGDTNYNQKFKGKATMTVDKSSSTAYMGLARLTSEDSAIFYCARGGGNYPYWYFDVWGAGTTVTVSS VL: ENVLTQSPAIMSASPGEKVTMTCRASSSVSSSYLHWYQQKSGDSPKLWIYSTSNLASGVPARFSGSGSGTSYSLTISSVEAEDAATYYCQQFSVYPLTFGAGTKLEIK : 70.3
3) 16-C6-F7-F5 (human IgG1 chimeric antibody) (antibody, V domains shown, human IgG1 chimeric antibody of the mouse clone) VH: QIQLVQSGPEVKKPGETVKISCKASGYTFTKYGINWVKQAPGEGLKWMGWIWTYTGKPTYGDDFKGRFAFSLETSASTAYLQISDLKIEDMATYFCARDDGYYYTMNYWGQGTSVTVSS VL: DIVMTQTPLSLPVSLGDQASISCRSSQSLLHTNGDTYLHWYLQKAGQPPKLLIYKVSNRFSGVPDRFSGSGSGTDFTLKISRVEAEDLGVYFCSQSTHIPWTFGGGTKLEIK : 92.1
4) 10-G6-C4-B2 (human IgG1 chimeric antibody) (antibody, V domains shown, human IgG1 chimeric antibody of the mouse clone) VH: EVQLVESGGGLVQPGGSLRLSCATSGFTLSDYYMSWVRQPPGKAPEWLGFMRNKANGYTTEYSASVRGRFTISRDTSQSIIYLQMNTLRAEDGATYYCVRDRDGRPFAYWGQGTLVTVSA VL: DIVMTQSPSSLTVTAGEKVTMSCKSSQSLLNSINQKNFLTWYQQKPGQPPKLLIYWASTRESGVPDRFTGSGSGTDFTLTISSVQAEDLAIYYCQNDYTYPLTFGTGTKLELK : 93.5

// below: Top cytotoxicity (%), CDC requested for another binder
# binder 30-C7-C11-D4 (human IgG1 chimeric antibody) (antibody, V domains shown, human IgG1 chimeric antibody of the mouse clone) VH: EVQLVESGPGLVKPSQSLSLTCTVTGYSITSDYAWNWIRQFPGNKLEWMGYISHSGSTSYNPSLKSRISITRDTSKNQFFLQLNSVTTEDTATYYCARSLGRRWYFDVWGAGTTVTVSS VL: DIVMTQSPSSLAMSVGQKVTLSCKSSQSLLNSSTQKNYLAWYQQKPGQSPKLLVYFASTRDSGVPDRFIGSGSGTEFTLTISSVQAEDLADYFCQQHYIIPFTFGAGTKLEIK ; its Top cytotoxicity (%), CDC = 60.3

This collection of values is drawn from patent US20240400689A1.
